Readings of GI50 for the listed compounds
# System: OVCAR-3 ovarian
# measurement_notes: NCI tumour cell line growth inhibition, 48 h

COc1ccc(-c2nn(-c3cccc(Cl)c3)cc2-c2cc(-c3ccccc3)nc(N)n2)cc1: 4.53 µM
Nc1cc(N)c2nc(-c3ccccc3)c(NCc3ccc(F)cc3)nc2c1: 2.39 µM
COC(=O)C1=C(OC(=O)c2ccc(Cl)cc2)C(C(=O)OC)[C@@]2(O)[C@@H](C(=O)OC)C(c3ccccc3Cl)C[C@@H]1[C@@H]2C(=O)OC (stereo partly specified): 1.76 µM
CCCOc1nc(SCCC)nc2c1cnn2-c1ccccc1: > 100 µM
O=C(CN(/C=C/C(=O)C(F)(F)F)c1ccccc1)c1ccc(Cl)c(Cl)c1: 14.1 µM

Query Nc1n[nH]c2cccc(C#Cc3cccc(C(=O)Nc4cc(CN5CCOCC5)cc(C(F)(F)F)c4)c3)c12 yields GI50 of 7.41 µM
